Reference for the values: the supplement of paper PMC10627819

test system: S. aureus Newman; assay: Bliss interaction score (quartile over a dose matrix) (fitness difference); higher = more antagonism (negative = synergy);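 note: first quartile when negative (synergy) and third quartile when positive (antagonism)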
Consider the following compounds; for each one, report its Bliss interaction score.

Reference set (2 entries):
Prompt line: So what's the measured Bliss interaction score for this one? C[C@H]1c2cccc(O)c2C(=O)C2=C(O)[C@]3(O)C(=O)C(C(N)=O)=C(O)[C@@H](N(C)C)[C@@H]3[C@@H](O)[C@@H]21 [Doxycycline] + Cc1ncc([N+](=O)[O-])n1CCO [Metronidazole]
Response line: 0.0262

Prompt line: So what's the measured Bliss interaction score for this one? O=C(O)c1cn(C2CC2)c2cc(N3CCNCC3)c(F)cc2c1=O [Ciprofloxacin] + CN(C)[C@@H]1C(O)=C(C(N)=O)C(=O)[C@@]2(O)C(O)=C3C(=O)c4c(O)ccc(Cl)c4[C@@](C)(O)[C@H]3C[C@@H]12 [Clortetracycline]
Response line: 0.119

// batch mode: one Bliss interaction score value per listed entry
1. CO/N=C(\C(=O)N[C@@H]1C(=O)N2C(C(=O)O)=C(COC(C)=O)CS[C@H]12)c1csc(N)n1 [Cefotaxime] + C[C@@H](O)[C@H]1C(=O)N2C(C(=O)O)=C(SCCNC=N)C[C@H]12 [Imipenem]
2. N#CC(C#N)=NNc1cccc(Cl)c1 [CCCP] + N[C@@H]1CONC1=O [CycloserineD]
3. C[C@@H]1O[C@@H]1P(=O)(O)O [Fosfomycin] + CC1(C)S[C@@H]2[C@H](NC(=O)Cc3ccccc3)C(=O)N2[C@H]1C(=O)O [PenicillinG]

Response line:
1: 0.0648; 2: -0.0487; 3: 0.0465
